assay_procedure: yeast display, Sf9 membrane polyspecificity reagent, FACS + sequencing; frameworks hold sequencing errors
outcome_measure: polyreactivity (PSR sort gate)

biosequence=QVQLVESGGGLVQAGGSLRLSCAASGNIFLYYAMGWYRQAPGKERELVADIDSSGASTYYADSVKGRFTISRDNAKNTVYLEMNSLKPEDTAVYYCAAEFHWWYAGYDYGYWGQGTQVTVSS recorded_measurement="low polyreactivity"
biosequence=QVQLVESGGGLVQAGGSLRLSCAASGRTFRTYTMGWYRQAPGKEREFVAAIDRTGGSTYYADSVKGRFTISRDNAKNTVYLQMNSLKPEDTAVYYCAARFGSGFNYWGQGTQVTVSS recorded_measurement="high polyreactivity"
biosequence=QVQLVESGGGLVQAGGSLRLSCAPSGRTLYNYAMGWTRQAPGKERELVASITWSGGSTYYADSVKGRFTISRDNAKNTVYLQMTSLKPEDTAVYYCAAESSPGTFVRYGYRRYYYWGQGTQVTVSS recorded_measurement="low polyreactivity"
biosequence=QVQLQESGGGLVQAGGSLRLSCAASGYISHADEMGWYRQAPGKEHELVASISNGGSTNYADSVKGRFTISRDNAKNTLYLQMNSLKSEDTAVNYCAAWTGQVDIHYYWGHGTQVTVSS recorded_measurement="low polyreactivity"
biosequence=QVQLVESGGGLVQAGGSLRLSCAASGFIFGYYAMGWYRQAPGKERDLVAAITSGTGTNYADSVKGRFTISRDNAKISVYLQMIRLKPEDTAVYYCAAYYTWLSEFGYWGQGTQVTVSS recorded_measurement="low polyreactivity"
biosequence=QVQLEESGGGLVQAGGSLRLSCAATGSLFYTYSMGWYRQAPGKERELGASIRSDGITNYADSVKGRFTISRDNAKNTVYLQMNSLKPEDTAVYYCAARIIWSTNYYYWSGYNSWGQGTQVTVSS recorded_measurement="high polyreactivity"
biosequence=QVQLVESGGGLVQAGGSLRLICAASGLTFHRYAMGWYRQAPGKERELVAAINYSGGRTYYADSVKGRFTISRDNAKNTVYLQMNSLKPEDTAVYYCAAPRASGYYWGQGTQVTVSS recorded_measurement="high polyreactivity"
biosequence=QDQLVESGGGLVQAGGSLRLSCAASGSTFQWYAMVWYRQAPGKERELVAAINKSGGTTYYADSVKGRFTISRDNAKNTVYLQMNRLKPEDTAVYYCATDNPVVYQPGNLDYWVQGTQVTVSS recorded_measurement="low polyreactivity"
biosequence=QVQLVESGGGLVQAGGRLRLSCAASGRIFYNYAMGWYRQAPGKERELVASINFSGTRTYYADSVKGRFTISRDYAKNHVYLQMNSLKPEDTAVYYCAARQAHGYYYWGQGTQVTVSS recorded_measurement="high polyreactivity"
biosequence=QDQLVESGGGLVQAGGSLRLTCAASGFTIWYYAMGWYRQAPGKERELVAAISSVSSTKYADSVKGRFTISRDNAKNTVYFQMNSLKPEDTAVYYCAADIVRYWRHGFGWRRYDYWGQGTQVTVSS recorded_measurement="high polyreactivity"
biosequence=QVQLVESGGGLVQAGGSLRLSCAASGSIFPLYGMGWYRQAPGKERELVGAISIGGRTNYADSVKGRFTISRDNAKNTVYLQMNSLKPEDTAVYYCNAVSKFVYRNRILWYDYWGQGTQVTVSS recorded_measurement="high polyreactivity"
biosequence=QVQLVESGGGLVQAGGSLRLSCAASGSIFGYYAMGWYRQAPGKERELVAAIRTTGGRTYYADSVKGRFTISRDNAKNTVYLQMNSLKPEDTAVYYCNALQAGVSYDYWGQGTQVTVSS recorded_measurement="high polyreactivity"
biosequence=QVQLVESGGGLVQAGGSLRLSCAASGSIFSSNAMGWYRQAPGKERELVAAISSSGGSTYYADSVKGRFTISRDNAKNTVYLQKNSLKPEDTAVYYCATGKQVYGHYYWGQGTQVTVSS recorded_measurement="low polyreactivity"
biosequence=QVQLVESGGGLVQAGGSLRLSCAASGIIFTTNAMGWYRQAPGKERELVATITSGGGTYYADSVKGRFTISRDNAKNTVYLQMNSLKPVDTAVYYCAATPGWGPWIFDHSYVDFDYWGQGTQVTVSS recorded_measurement="low polyreactivity"
biosequence=QVHLVESGGGLVQAGGSLRLSCAAYGRIFKNYAMGWYRQAPGKESELVAAISWSGGRTYYADSVKGRFTISRDNAKNTVYLQMNSLKPEDTAVYYCATAARRGTSSIEPFGYGSWGQGTQVTVSS recorded_measurement="high polyreactivity"
biosequence=QVQLVESGGGLVQAGGSLRLSCAASGSTLPSYAMGWYRQAPGKERELVAAISSSGGRTYYADSVKGRFTISRDNAKNTVYLQMNSLKPEDTAVYYCAALSVANYHGTDSGYWGQGTQVTVSS recorded_measurement="high polyreactivity"
biosequence=QVQLVESGGGLVQAGGSLRLSCAASGSIFVSYAMGWYRQAPGKERELVAAIRRGGTSTYYEDSVKGRFTISRDNAKNTVYLQMNSLKPEDTAVYYCAAPRYFTRYRPLGIYDYWGQGTQVTVSS recorded_measurement="high polyreactivity"
biosequence=QVQLVESGGGLVHAGGSLRLTCAASGLTFAYYAMGWYRQAPGKERELVAAISWNGGRTYNADSVKGRFTISRDNAKNTVYLQMNSLKPEDTAVYYCAAQVTSSFYWGQGTQVTVSS recorded_measurement="high polyreactivity"
biosequence=QVQLVESGGGLVQAGGSLRLSCAASGFNLKWYAMGWYRQAPGKERELVAAINDRGGNTYYADSVKGRFTISRDNAKNTVYLQMNSLKPEDTAVYYCAVRGKTYRPYYYWGQGTQVTVSS recorded_measurement="high polyreactivity"
biosequence=QVQLVESGGGLVQAGGSLRLSCAASGRTFWVYAMGWNRQATGKERELVATISKSAGITSYADSVKGRFTFSRDNAKNTVYLQMNSLKPEDTAVYYCAADKSYRRVYYWGQGTQVTVSS recorded_measurement="low polyreactivity"
biosequence=QVHLVESGGGLVQAGGSLRLSCAASGITFRRNAMGWYRQAPGKERELVARITVSGGTTYYADSVKGRFTISRDYAKNTVYLQMNSLKPEDTAVYYCAKVWHSSRVSPYDYWGQGTQVTVSS recorded_measurement="low polyreactivity"

----------
assay_procedure: yeast display, Sf9 membrane polyspecificity reagent, FACS + sequencing; frameworks hold sequencing errors
outcome_measure: polyreactivity (PSR sort gate)

biosequence=QVQLVESGGGLVQAGVSLRLSCAASGITLYRYAMGWYRQATGKERELVADISSGGGTTYYADSVKGRFTISRDNAKNTVYLQMNSLKPEDTAVYYCAADYGFRYPLYDYWGQGTQVTVSS recorded_measurement="low polyreactivity"
biosequence=QVQLEESGGGLVQAGGSLRLSCAASGSILYVYAMGWSRQAPGKERELVAAMTRSGDTTSYADSVKGRFTISRDFAKNTVYLQLNSLKPEDTAVYYCDAAERRYGRGYGYWGQCTQVTVSS recorded_measurement="high polyreactivity"
biosequence=QVQLVESGGGLVQAGGSLRLSCAASGRIFAWYAMGWYRQSPGKESELVAAISDSGGSTYYADSVKGRFTISRDNAKNTVYLQMNSLKPEDTAVYYCAADQVVYSAYWSDHYDYWGQGTQVTVSS recorded_measurement="low polyreactivity"
biosequence=QVQLVESGGGLVQAGGSLRLSCAASGFIFSYYAMGWYIQEPGKERELVAAITVTGGNTYYADSVKGRFTISRDNAKNTVYLQMNSLIPEDTAVYYCAAVVRGPGVSVYYWGLGTQVTVSS recorded_measurement="low polyreactivity"
biosequence=QVLLVESGGGLVQAGGILRLSCAASGLTFTYYAMGWYRQAPGKERELVAAISRCGTGTYYADSVKGRFTISRDNAKNTVYLHMNSLKPEDTAVYYCATLPGRYFTANEYWGQGTQVTVSS recorded_measurement="high polyreactivity"

----------
assay_procedure: yeast display, Sf9 membrane polyspecificity reagent, FACS + sequencing; frameworks hold sequencing errors
outcome_measure: polyreactivity (PSR sort gate)

biosequence=QVQLVESGGCLVQAGGSLRLSCAASGSIFSKNTMGWSRQAPGKDRELVATISIGGGSTYYADSVKGRFTISRDNAKNTVYLQMNSLKPADSAVYYCNASLRRPFSLYYYWGQGTQVTVSS recorded_measurement="high polyreactivity"
biosequence=QVQLVESGGGLVQAGGSLRLSCAASGRIFGNYAMGWYRQAPGKESELVAAISGGGSTYYADSVKGRFTISRDNAKNTVYLQMNSLKPEDTAVYYCAARFLWSVFGRKGGYWGQGTQVTVSS recorded_measurement="low polyreactivity"
biosequence=QVQLVESGGGLVQAGGSLRLSCAASGRIFDLNAMGWYRQAPGKERELVAVISWSGGIKYYADSVKGRFTISRDNAKNTVYLQMNSLKPEDTAVYYCNADTVFDPYYEFDYWGLGTQVTVSS recorded_measurement="low polyreactivity"
biosequence=QVQLVESGGGLVQAGGSLRLSCAASGRTFATYTMGWYRQAPGQERELVAAITRGGGSTFYADSVQGRFTITRDHAKNPVYLQMNSLKPEDTAVYYFAARIPGSFKSGYWGQGTQVTVSS recorded_measurement="high polyreactivity"
biosequence=QVQLVESGGGLVQAGGSLRLSCAASGRTFPFNAMGWYRQAPGKERELVAVINSGGSTYYADSVKGRFTISRDNAKNTVYLQMNSLKPEDTAVYYCNAYSSRYRYNYWGQGTQVTVSS recorded_measurement="high polyreactivity"
